Where these numbers come from: patent USRE39634E1

- MEASUREMENT_TARGET: human FAAH (Homo sapiens)
- Sequence (O00519 1-579): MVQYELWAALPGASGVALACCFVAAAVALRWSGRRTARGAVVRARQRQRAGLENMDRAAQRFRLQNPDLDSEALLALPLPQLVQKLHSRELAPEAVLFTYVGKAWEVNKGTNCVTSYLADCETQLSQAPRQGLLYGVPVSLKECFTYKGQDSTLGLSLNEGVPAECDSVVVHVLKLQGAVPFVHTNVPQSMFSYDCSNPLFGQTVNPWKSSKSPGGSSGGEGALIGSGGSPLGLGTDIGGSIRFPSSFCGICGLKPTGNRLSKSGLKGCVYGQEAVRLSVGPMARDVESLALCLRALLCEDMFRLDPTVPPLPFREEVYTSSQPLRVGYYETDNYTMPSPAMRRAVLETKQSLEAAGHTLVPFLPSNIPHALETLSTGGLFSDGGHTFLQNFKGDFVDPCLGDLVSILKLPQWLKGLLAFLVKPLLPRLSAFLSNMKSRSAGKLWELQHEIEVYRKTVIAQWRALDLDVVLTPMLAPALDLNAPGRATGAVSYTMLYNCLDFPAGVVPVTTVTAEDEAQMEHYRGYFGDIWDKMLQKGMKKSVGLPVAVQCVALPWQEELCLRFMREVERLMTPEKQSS
pIC50: −log10 of the molar value.

| SMILES_NOTATION | pIC50 |
| --- | --- |
| Cc1nc(-c2ccccc2)c(-c2ccccc2)n1CCCOc1ccc(NC(=O)Oc2ccccc2)cc1 | 5.00 to 6.00 |
| CCOC(=O)NCCCCCn1c(C)nc(-c2ccccc2)c1-c1ccccc1 | 6.00 to 7.00 |
| COc1ccc(OC(=O)Nc2ccc(OCCn3c(C)nc(-c4ccccc4)c3-c3ccccc3)cc2)cc1 | 5.00 to 6.00 |
| Cc1nc(-c2ccccc2)c(-c2ccccc2)n1CCCCCNC(=O)Oc1ccc(C#N)cc1 | 7.00 to 8.00 |
| Cc1nc(-c2ccccc2)c(-c2ccccc2)n1CCCCCNC(=O)Oc1ccccc1F | 7.00 to 8.00 |
| Cc1ccccc1OC(=O)NCCCCCCCn1c(C)nc(-c2ccccc2)c1-c1ccccc1 | 7.00 to 8.00 |
| CCOC(=O)NCCCCCCn1c(C)nc(-c2ccccc2)c1-c1ccccc1 | 6.00 to 7.00 |
| Cc1nc(-c2ccccc2)c(-c2ccccc2)n1CCCCCNC(=O)Oc1ccc(F)cc1 | 7.00 to 8.00 |
| Cc1nc(-c2ccccc2)c(-c2ccccc2)n1CCCCCCCNC(=O)Oc1ccccc1F | > 8.00 |
| Cc1nc(-c2ccccc2)c(-c2ccccc2)n1CCOc1ccc(NC(=O)Oc2ccccc2F)cc1 | 5.00 to 6.00 |
| Cc1nc(-c2ccc(F)cc2)c(-c2ccc(F)cc2)n1CCCCCCNC(=O)Oc1ccccc1F | > 8.00 |
| COC(=O)NCCCCCCn1c(C)nc(-c2ccccc2)c1-c1ccccc1 | 6.00 to 7.00 |
| Cc1nc(-c2ccccc2)c(-c2ccccc2)n1CCOc1ccc(NC(=O)Oc2ccccc2)cc1 | 5.00 to 6.00 |
| Cc1ccccc1OC(=O)NCCCCCn1c(C)nc(-c2ccccc2)c1-c1ccccc1 | 6.00 to 7.00 |
| Cc1nc(-c2ccccc2)c(-c2ccccc2)n1CCCCCCNC(=O)Oc1ccc(F)cc1 | > 8.00 |
| Cc1nc(-c2ccccc2)c(-c2ccccc2)n1CCCCCCNC(=O)Oc1ccc(F)cc1F | > 8.00 |
| COc1ccccc1OC(=O)NCCCCCCn1c(C)nc(-c2ccccc2)c1-c1ccccc1 | 6.00 to 7.00 |
